Below, each entry is listed with its recorded %Inh.
System: IRAK4;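 further: KINOMEscan kinase panel screen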
conditions: concentration: 1 μM, replicates: in singlicate; n = 1
Report only the number, with the unit % understood.

Illustrative cases are given below, each with its answer.
Dear colleague, I am looking for the recorded %Inh of the following compound: "CCn1c(-c2nonc2N)nc2c(-c3ccccc3)ncc(OCCCN)c21.O=C(O)C(F)(F)F.O=C(O)C(F)(F)F"
21

Can you share its %Inh? I mean this compound: NCCC(NC(=O)c1cc(Br)c(-c2ccnc3[nH]ccc23)s1)c1ccccc1.O=C(O)C(F)(F)F.O=C(O)C(F)(F)F (stereo not shown)
0

Give its %Inh value. Item: "CN(c1ccc(NC(=O)N2CCN(CCCN3CCOCC3)CC2)cc1)c1ccnc(Nc2ccc(CS(C)(=O)=O)cc2)n1.Cl"
0

Here is the next item to consider.
Look at this compound and give its reported %Inh. "CN(C)CCNS(=O)(=O)c1ccc(-c2ccnc3[nH]ccc23)cc1"
17
